B1: SCARA5 (parent)
chain: VTEDLRLKDWEHSIALRNISLAKG

- Variants of: B1
- experimentNotes: protein stability index of a GFP-peptide fusion (GPS, HEK-293T) (PSI 1-6); higher = more stable;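 note: lentivirally expressed fusions sorted by FACS into six bins by GFP to DsRed ratio, PSI derived from sequencing read proportions per bin multiplied by bin number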
- measurementSetup: c terminus: a fixed tail appended
Please enter satisfied where protein stability index is greater than or equal to 3, and not satisfied where it is lower.

>>> categorylabel("S20L")
"satisfied"
>>> categorylabel("L5Y")
"satisfied"
>>> categorylabel("R17M")
"not satisfied"
>>> categorylabel("R17S")
"satisfied"
>>> categorylabel("I19T")
"satisfied"
>>> categorylabel("S20R")
"satisfied"
>>> categorylabel("T2K")
"satisfied"
>>> categorylabel("H12S")
"satisfied"
>>> categorylabel("R6S")
"satisfied"
>>> categorylabel("D4K")
"not satisfied"
>>> categorylabel("V1Q")
"satisfied"
>>> categorylabel("L7P")
"satisfied"
>>> categorylabel("I19R")
"satisfied"
